pIC50: −log10 of the molar value.
The molecules below have reported pIC50 for MAPK14 (human).
observedProperty: pIC50

Some molecules with known pIC50 results, for comparison:
// query Param readout= pIC50; system= MAPK14 (human); entry= CN1CCC(O)(c2nc(-c3ccc(F)cc3)c(-c3ccncc3)[nH]2)CC1 ; returns value.
// result 7.05

// query Please do the same for CC(C)c1noc(-c2ccc(F)cc2)c1-c1ccnc(NC2CC2)c1 as well.
// result 5.70

// query Please do the same for COc1cc(-c2cnoc2-c2ccc(F)cc2)ccn1 as well.
// result 4.30

// query Please do the same for Fc1ccc(-c2oncc2-c2ccnc(Cl)c2)cc1 as well.
// result 4.38

// query Please do the same for CN1CCC(O)(c2nc(-c3ccc(F)cc3)c(-c3ccncc3)o2)CC1 as well.
// result 6.46

A: Fc1ccc(-c2oncc2-c2ccnc(OCCc3ccccc3)c2)cc1
B: CN1CCC(O)(c2nc(-c3ccncc3)c(-c3ccc(F)cc3)o2)CC1
C: Fc1ccc(-c2nc[nH]c2-c2ccncc2)cc1
D: Fc1ccc(-c2oncc2-c2ccnc(Br)c2)cc1
E: Fc1ccc(-c2oc(-c3ccc(Cl)cc3)cc2-c2ccncc2)cc1
// query Sort the molecules on pIC50; start with the lowest figure. // rank by listing labels in the order requested
// result D, A, B, E, C

Origin of values: the Kinase Knowledgebase extract (Sharma et al. 2016)
